Molecular target: HDAC1 enzyme (Homo sapiens)
Construct: transducing full length HDAC1 and HDAC6 genes into Sf-9 insect cells; GST; purchased SignalChem; host or cells: Sf-9 insect cells
Sequence (Q13547 whole entry): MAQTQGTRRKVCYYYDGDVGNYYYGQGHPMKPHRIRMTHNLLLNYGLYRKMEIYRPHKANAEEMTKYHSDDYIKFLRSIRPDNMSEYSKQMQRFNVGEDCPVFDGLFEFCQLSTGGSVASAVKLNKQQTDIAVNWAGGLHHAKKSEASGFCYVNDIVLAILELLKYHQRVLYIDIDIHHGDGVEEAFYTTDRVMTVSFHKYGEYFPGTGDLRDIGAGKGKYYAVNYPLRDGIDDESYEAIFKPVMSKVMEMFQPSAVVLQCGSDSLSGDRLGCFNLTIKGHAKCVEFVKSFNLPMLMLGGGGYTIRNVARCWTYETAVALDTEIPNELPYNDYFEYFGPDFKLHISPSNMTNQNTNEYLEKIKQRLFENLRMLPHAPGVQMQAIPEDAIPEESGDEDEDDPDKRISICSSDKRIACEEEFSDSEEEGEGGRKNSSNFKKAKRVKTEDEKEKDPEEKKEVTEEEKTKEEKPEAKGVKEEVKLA
Experiment: HDAC1/6 Enzyme Inhibitory Assay (HDAC-Glo I/II Assay kit), HDAC1
Assay type: biochemical
Settings: 1 μM test compound; wells without enzyme = 100% inhibition; read-out: HDAC1 inhibitory rate (%) (1 μM)
Where a name gives a salt, the structure may show the parent alone.

compound | experimentalSystem | inhibition at 1 µM (%)
CC1(C(=O)N[C@@H]2CCCC[C@H]2N2Cc3ccc(-c4noc(C(F)(F)F)n4)cc3C2=O)CC1(F)F (stereo partly shown) [Example 111] | HDAC1 enzyme (Homo sapiens) | 14
O=C1NCC(C(=O)N[C@@H]2CCCC[C@H]2N2Cc3ccc(-c4noc(C(F)(F)F)n4)cc3C2=O)N1 (stereo partly shown) [Example 109] | HDAC1 enzyme (Homo sapiens) | -2
O=C1c2cc(-c3noc(C(F)(F)F)n3)ccc2CN1[C@H]1C[C@@H]1c1ccccc1 (relative stereo) [Example 66] | HDAC1 enzyme (Homo sapiens) | 17
Cc1cc([C@@H]2CNCC[C@H]2N2Cc3ccc(-c4noc(C(F)(F)F)n4)cc3C2=O)ccc1F (relative stereo) [Example 49] | HDAC1 enzyme (Homo sapiens) | 96
O=C(N[C@H]1CCCC[C@@H]1N1Cc2ccc(-c3noc(C(F)(F)F)n3)cc2C1=O)C1CC1 [Example 33] | HDAC1 enzyme (Homo sapiens) | 7
O=C1c2cc(-c3noc(C(F)(F)F)n3)ccc2CN1C1CCNC[C@@H]1c1ccccc1 (stereo partly shown) [Example 22, hydrochloride] | HDAC1 enzyme (Homo sapiens) | 85
CC(C)(C)OC(=O)N1CC(C)(C(=O)N[C@@H]2CCCC[C@H]2N2Cc3ccc(-c4noc(C(F)(F)F)n4)cc3C2=O)C1 [Example 197] | HDAC1 enzyme (Homo sapiens) | 6
CC(C)(O)CC(=O)N[C@@H]1CCCC[C@H]1N1Cc2ccc(-c3noc(C(F)(F)F)n3)cc2C1=O [Example 96] | HDAC1 enzyme (Homo sapiens) | 10
CC(=O)N1C[C@@H](N2Cc3ccc(-c4noc(C(F)(F)F)n4)cc3C2=O)[C@H](c2ccccc2)C1 (relative stereo) [Example 4] | HDAC1 enzyme (Homo sapiens) | 69
O=C(c1ccccc1)N1CCC(N2Cc3ncc(-c4noc(C(F)(F)F)n4)cc3C2=O)CC1 [Example 67] | HDAC1 enzyme (Homo sapiens) | 13
CN1CCC[C@@H]1C(=O)N[C@@H]1CCCC[C@H]1N1Cc2ccc(-c3noc(C(F)(F)F)n3)cc2C1=O [Example 94] | HDAC1 enzyme (Homo sapiens) | 5
O=C(N[C@@H]1CCCC[C@H]1N1Cc2ccc(-c3noc(C(F)(F)F)n3)cc2C1=O)[C@@H]1CC1(F)F [Example 147] | HDAC1 enzyme (Homo sapiens) | 6
N[C@@H]1CCC[C@H]1N1Cc2ccc(-c3noc(C(F)(F)F)n3)cc2C1=O [Example 142] | HDAC1 enzyme (Homo sapiens) | -6
O=C(N[C@@H]1CCCC[C@H]1N1Cc2ccc(-c3noc(C(F)(F)F)n3)cc2C1=O)N1CCC(F)(F)C1 [Example 169] | HDAC1 enzyme (Homo sapiens) | 10
O=C(N[C@@H]1CCCC[C@H]1N1Cc2ccc(-c3noc(C(F)(F)F)n3)cc2C1=O)C1CC1F (stereo partly shown) [Example 132] | HDAC1 enzyme (Homo sapiens) | 5
CC(=O)N[C@@H]1CCCC[C@H]1N1Cc2ccc(-c3noc(C(F)(F)F)n3)cc2C1=O (relative stereo) [Example 8] | HDAC1 enzyme (Homo sapiens) | 10
O=C1C[C@](Cc2ccccc2)(N2Cc3ccc(-c4noc(C(F)(F)F)n4)cc3C2=O)CN1 [Example 61] | HDAC1 enzyme (Homo sapiens) | 41
N[C@H]1CCC[C@@H]1N1Cc2ccc(-c3noc(C(F)(F)F)n3)cc2C1=O [Example 143] | HDAC1 enzyme (Homo sapiens) | -1
Cc1cc(F)ccc1[C@@H]1CNCC[C@H]1N1Cc2ccc(-c3noc(C(F)(F)F)n3)cc2C1=O (relative stereo) [Example 50] | HDAC1 enzyme (Homo sapiens) | 93
O=C1c2cc(-c3noc(C(F)(F)F)n3)ccc2CN1[C@@H]1CCCC[C@H]1NC(=O)C1(CO)CC1 [Example 153] | HDAC1 enzyme (Homo sapiens) | 6
CC(C)(O)C(=O)N[C@H]1CCCC[C@@H]1N1Cc2ccc(-c3noc(C(F)(F)F)n3)cc2C1=O [Example 219] | HDAC1 enzyme (Homo sapiens) | 5
CC(=O)N1CC[C@@H](N2Cc3ccc(-c4noc(C(F)(F)F)n4)cc3C2=O)[C@@H](c2ccccc2)C1 [Example 23] | HDAC1 enzyme (Homo sapiens) | 58
O=C1C[C@@H](C(=O)N[C@@H]2CCCC[C@H]2N2Cc3ccc(-c4noc(C(F)(F)F)n4)cc3C2=O)N1 [Example 93] | HDAC1 enzyme (Homo sapiens) | 2
O=C(N[C@@H]1COCC[C@H]1N1Cc2ccc(-c3noc(C(F)(F)F)n3)cc2C1=O)C1CC1 [Example 82] | HDAC1 enzyme (Homo sapiens) | 10
Cc1ccc([C@@H]2CNCC[C@H]2N2Cc3ccc(-c4noc(C(F)(F)F)n4)cc3C2=O)cc1 (relative stereo) [Example 47] | HDAC1 enzyme (Homo sapiens) | 90
CC(C)(C)OC(=O)N[C@H]1CCC[C@@H]1N1Cc2ccc(-c3noc(C(F)(F)F)n3)cc2C1=O [Example 141] | HDAC1 enzyme (Homo sapiens) | 28
CC(=O)N1CC[C@@H](N2Cc3ccc(-c4noc(C(F)(F)F)n4)cc3C2=O)[C@H](c2ccccc2)C1 [Example 20] | HDAC1 enzyme (Homo sapiens) | 87
CC(C)(C)N1CC(C(=O)N[C@@H]2CCCC[C@H]2N2Cc3ccc(-c4noc(C(F)(F)F)n4)cc3C2=O)C1 [Example 114] | HDAC1 enzyme (Homo sapiens) | 1

###

Molecular target: HDAC6 enzyme (Homo sapiens)
Construct: transducing full length HDAC1 and HDAC6 genes into Sf-9 insect cells; GST; purchased SignalChem; host or cells: Sf-9 insect cells
Sequence (Q9UBN7 whole entry): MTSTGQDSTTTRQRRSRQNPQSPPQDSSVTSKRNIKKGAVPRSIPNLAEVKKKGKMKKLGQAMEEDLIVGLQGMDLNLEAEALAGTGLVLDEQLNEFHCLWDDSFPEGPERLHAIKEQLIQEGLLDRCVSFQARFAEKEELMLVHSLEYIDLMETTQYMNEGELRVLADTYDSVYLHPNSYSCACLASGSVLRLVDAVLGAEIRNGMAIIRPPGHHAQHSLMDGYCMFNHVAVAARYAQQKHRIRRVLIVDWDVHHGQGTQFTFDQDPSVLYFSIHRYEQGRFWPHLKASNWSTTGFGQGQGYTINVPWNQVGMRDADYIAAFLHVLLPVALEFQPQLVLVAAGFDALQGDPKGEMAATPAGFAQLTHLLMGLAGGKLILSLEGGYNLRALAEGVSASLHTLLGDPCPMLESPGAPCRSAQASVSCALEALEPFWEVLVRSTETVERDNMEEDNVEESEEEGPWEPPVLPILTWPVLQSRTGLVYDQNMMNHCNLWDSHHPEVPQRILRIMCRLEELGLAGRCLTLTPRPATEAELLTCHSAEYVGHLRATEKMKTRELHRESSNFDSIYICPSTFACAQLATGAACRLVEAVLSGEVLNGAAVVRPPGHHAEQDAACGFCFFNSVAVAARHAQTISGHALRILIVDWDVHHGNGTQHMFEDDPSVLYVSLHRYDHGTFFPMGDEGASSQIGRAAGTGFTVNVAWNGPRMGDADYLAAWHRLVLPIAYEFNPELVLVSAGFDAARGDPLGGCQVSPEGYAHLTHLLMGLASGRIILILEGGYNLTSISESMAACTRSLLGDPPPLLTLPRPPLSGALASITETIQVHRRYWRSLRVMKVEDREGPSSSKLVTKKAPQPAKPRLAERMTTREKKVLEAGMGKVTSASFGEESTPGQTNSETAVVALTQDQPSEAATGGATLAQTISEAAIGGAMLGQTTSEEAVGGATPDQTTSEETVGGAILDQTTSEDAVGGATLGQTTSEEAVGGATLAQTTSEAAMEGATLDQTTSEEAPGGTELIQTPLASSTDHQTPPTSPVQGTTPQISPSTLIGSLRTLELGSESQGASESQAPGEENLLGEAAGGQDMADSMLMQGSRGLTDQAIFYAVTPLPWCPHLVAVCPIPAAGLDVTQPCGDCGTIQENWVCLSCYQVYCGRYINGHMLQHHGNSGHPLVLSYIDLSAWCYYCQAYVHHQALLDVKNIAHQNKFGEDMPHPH
Test: HDAC1/6 Enzyme Inhibitory Assay (HDAC-Glo I/II Assay kit), HDAC6
Type: biochemical
Conditions: 1 μM test compound; wells without enzyme = 100% inhibition; 1 µM

compound | experimentalSystem | HDAC6 inhibitory rate (%) (1 μM)
O=C(N[C@@H]1CCOC[C@@H]1N1Cc2ccc(-c3noc(C(F)(F)F)n3)cc2C1=O)C1CC1(F)F (single isomer, unassigned) [Example 211] | HDAC6 enzyme (Homo sapiens) | 43
O=C(N[C@@H]1CCCC[C@H]1N1Cc2ccc(-c3noc(C(F)(F)F)n3)cc2C1=O)C1CCCCCO1 (stereo partly shown) | HDAC6 enzyme (Homo sapiens) | 99
CC1(C(=O)N[C@@H]2CCCC[C@H]2N2Cc3ccc(-c4noc(C(F)(F)F)n4)cc3C2=O)CC1(F)F (stereo partly shown) [Example 171] | HDAC6 enzyme (Homo sapiens) | 98
CC1(C(=O)N[C@@H]2CCCC[C@H]2N2Cc3ccc(-c4noc(C(F)(F)F)n4)cc3C2=O)CC1(F)F (stereo partly shown) [Example 170] | HDAC6 enzyme (Homo sapiens) | 100
O=C1CCCN1[C@@H]1CCOC[C@H]1N1Cc2ccc(-c3noc(C(F)(F)F)n3)cc2C1=O [Example 178] | HDAC6 enzyme (Homo sapiens) | 99
O=C(N[C@@H]1CCOC[C@@H]1N1Cc2ccc(-c3noc(C(F)(F)F)n3)cc2C1=O)C1CC1(F)F (single isomer, unassigned) [Example 212] | HDAC6 enzyme (Homo sapiens) | 82
O=C1CCCN1[C@@H]1CCOC[C@H]1N1Cc2ccc(-c3noc(C(F)(F)F)n3)cc2C1=O [Example 183] | HDAC6 enzyme (Homo sapiens) | 77

###

Target: HDAC9 enzyme (Homo sapiens, UniProt Q9UKV0)
Construct: transducing full length HDAC9 gene into Sf-9 insect cells; made in house; host or cells: Sf-9 insect cells
Sequence (Q9UKV0 whole entry, species assumed): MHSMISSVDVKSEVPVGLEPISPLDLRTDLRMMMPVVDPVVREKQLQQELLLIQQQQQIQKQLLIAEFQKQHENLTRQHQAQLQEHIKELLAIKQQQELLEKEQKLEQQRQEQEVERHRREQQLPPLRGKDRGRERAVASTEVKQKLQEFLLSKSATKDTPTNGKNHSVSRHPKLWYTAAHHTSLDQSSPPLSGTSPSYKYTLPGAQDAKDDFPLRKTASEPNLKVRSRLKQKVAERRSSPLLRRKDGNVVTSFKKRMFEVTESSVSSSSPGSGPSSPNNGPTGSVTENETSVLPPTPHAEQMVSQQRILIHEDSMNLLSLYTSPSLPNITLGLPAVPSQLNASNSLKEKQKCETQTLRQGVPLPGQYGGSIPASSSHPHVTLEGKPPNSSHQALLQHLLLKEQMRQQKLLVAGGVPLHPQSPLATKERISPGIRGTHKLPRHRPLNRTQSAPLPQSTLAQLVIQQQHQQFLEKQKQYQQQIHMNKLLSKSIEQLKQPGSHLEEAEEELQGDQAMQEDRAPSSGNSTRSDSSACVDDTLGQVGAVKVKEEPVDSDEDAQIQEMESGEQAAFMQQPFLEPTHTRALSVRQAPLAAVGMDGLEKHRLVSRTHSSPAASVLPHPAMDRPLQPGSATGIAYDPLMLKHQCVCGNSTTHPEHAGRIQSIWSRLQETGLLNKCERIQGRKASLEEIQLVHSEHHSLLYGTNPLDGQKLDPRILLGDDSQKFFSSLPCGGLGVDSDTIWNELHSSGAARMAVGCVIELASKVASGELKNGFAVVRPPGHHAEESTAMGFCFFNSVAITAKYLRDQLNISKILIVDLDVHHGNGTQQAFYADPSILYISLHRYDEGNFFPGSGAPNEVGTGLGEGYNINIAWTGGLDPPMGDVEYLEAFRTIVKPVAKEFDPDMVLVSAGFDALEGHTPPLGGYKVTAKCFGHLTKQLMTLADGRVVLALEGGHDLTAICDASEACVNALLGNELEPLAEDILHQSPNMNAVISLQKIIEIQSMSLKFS
Assay: HDAC9 Enzyme Inhibitory Assay (HDAC-Glo class IIa)
Assay type: biochemical
Conditions: 1 μM test compound; wells without enzyme = 100% inhibition; read-out: HDAC9 inhibitory rate (%) (1 μM)
testReadout: inhibition at 1 µM (%)

compound | testReadout | unitDescriptor | measuredValue
O=C(N[C@H]1COCC[C@@H]1N1Cc2ccc(-c3noc(C(F)(F)F)n3)cc2C1=O)[C@@H]1CC1(F)F | inhibition at 1 µM | % | 65
CC(C)(C)OC(=O)N1CC[C@@H](N2Cc3ccc(-c4noc(C(F)(F)F)n4)cc3C2=O)[C@@H](c2ccccc2)C1 | inhibition at 1 µM | % | 48
O=C(N[C@H]1CCCC[C@H]1N1Cc2ccc(-c3noc(C(F)(F)F)n3)cc2C1=O)C1CC1 | inhibition at 1 µM | % | 92
O=C1c2cc(-c3noc(C(F)(F)F)n3)ccc2CN1[C@@H]1CCCC[C@H]1NC(=O)C1(O)CCC1 | inhibition at 1 µM | % | 42
CN1CC(C(=O)N[C@@H]2CCCC[C@H]2N2Cc3ccc(-c4noc(C(F)(F)F)n4)cc3C2=O)CC1=O (stereo partly shown) | inhibition at 1 µM | % | 37
CC(=O)N1CC[C@@H](N2Cc3ccc(-c4noc(C(F)(F)F)n4)cc3C2=O)[C@@H](c2ccccc2)C1 | inhibition at 1 µM | % | 84
O=C1c2cc(-c3noc(C(F)(F)F)n3)ccc2CN1[C@H]1C[C@@H]1c1ccccc1 (relative stereo) | inhibition at 1 µM | % | 54
